# Test target: T1, human CD40-His tag protein (Sino Biological Inc. Cat #10239-H08E) (human, UniProt P25942 21-193)
# T1 construct: also called human CD40 protein; CD40 protein; not shown: His tag
# T1 sequence (P25942 21-193 limits assumed, stated change not applied): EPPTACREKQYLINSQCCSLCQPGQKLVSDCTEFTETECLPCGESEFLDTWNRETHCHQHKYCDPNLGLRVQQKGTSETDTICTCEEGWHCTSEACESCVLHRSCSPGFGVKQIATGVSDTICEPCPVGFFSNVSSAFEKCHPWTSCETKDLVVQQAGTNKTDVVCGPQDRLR
# Assay explanation: ELISA, plate coated with human CD40-His at 1 ug/ml, anti-human IgG-HRP, A450
Assay metric: EC50 (read off the curve)

Return the recorded EC50 (read off the curve) value; entry: LYV378 (chimeric antibody, 9F12D9 in human IgG4SP / human kappa) (antibody, V domains shown, Human IgG4 S228P and human kappa; elsewhere it is 9F12D9; also called 9F12D9 chimeric; 9F12D8) VH: EVHLVESGGGLVQPGRSLKLSCAASGFTFTNYGLHWIRQAPTKGLEWVASISPSGGVTYYRDSVKGRFTISRDNGKTTLHLQMDSLRSEDTATYYCALPFLGWGGANWIAHWGQGTLVTVSS VL: DIQMTQSPASLSASLGETVSIECLASEDISNDLAWYQQKSGKSPQLLIYFVDRLLDGVPSRFSGSGSGTRHSLKISGMQPEDEADYFCQQSYKYPPTFGGGTKLELKR
~4 ng/mL
